- method.description: Cytotoxicity assay
- Assay type: cell-based
- run.parameters: human, MRC-5 cells
Would you mind telling me the reported CC50 at 24 h of each entry?

Dear reader, for each entry below, please note its CC50 at 24 h.
1. COC[C@H]1OC(=O)c2coc3c2[C@@]1(C)C1=C(C3=O)[C@@H]2CCC(=O)[C@@]2(C)C[C@H]1OC(C)=O
2. O=c1c(O)c(-c2cc(O)c(O)c(O)c2)oc2cc(O)cc(O)c12
3. CC(=O)NS(=O)(=O)c1ccc(N)cc1 [Sulfacetamide]

Reply:
["> 50 µM", "434 µM", "> 1000 µM"]

====

- Test system: MRC-5 cells
- method.description: Cytotoxicity assay
- Type: cell-based
- run.parameters: read-out: CC50 ± SD, MTT, 24 h
Would you mind telling me the reported CC50 of each entry?

Dear reader, for each entry below, please note its CC50.
1. CC1=C(C(=O)OC2CCCCC2)C(c2ccc([N+](=O)[O-])cc2)C2=C(CC(C)(C)CC2=O)N1 (centres unmarked)
2. COc1cc(-n2c(=S)[nH]c3ccccc3c2=O)c(Cl)cc1Cl
3. CC(=O)Nc1nc(C)c(-c2ccc(Cl)c(S(=O)(=O)NCCO)c2)s1
4. CCCCCCCCCCC(C)(C)C(=O)Nc1c(OC)cc(OC)cc1OC
5. C=C(C)[C@H]1CC=C(C)CC1 [R-(+)-Limonene]
6. Nc1ccc(C(=O)NCC(=O)O)cc1

Reply:
["> 50 µM", "95.4 µM", "> 50 µM", "50.7 µM", "1910 µM", "< 10000 µM"]

Dear reader, for each entry below, please note its CC50.
1. NCC(CC(=O)O)c1ccc(Cl)cc1 (centres unmarked)
2. N[C@@H](Cc1ccccc1)C(=O)O

Reply:
> 1000 µM
< 10000 µM

====

- Test system: Vero E6 cells
- run.parameters: uninfected Vero E6 cells, 3 days
readout.label: First cytotoxic conc. (µM)
Give bare numbers, in µM.

{"compound": "C[C@H]1O[C@@H](O[C@H]2[C@@H](O)C[C@H](O[C@H]3[C@@H](O)C[C@H](O[C@H]4CC[C@@]5(C)[C@H](CC[C@@H]6[C@@H]5CC[C@]5(C)[C@@H](C7=CC(=O)OC7)CC[C@]65O)C4)O[C@@H]3C)O[C@@H]2C)C[C@H](O)[C@@H]1O [Digitoxin]", "unit.text": "µM", "First cytotoxic conc.": 1.56}

Dear reader, for each entry below, please note its First cytotoxic conc..
1. CC(=O)Nc1nc(C)c(-c2ccc(Cl)c(S(=O)(=O)NCCO)c2)s1 [PIK93]
2. CC(O)COC[C@H]1O[C@@H]2O[C@H]3[C@H](O)[C@@H](O)[C@@H](O[C@H]4[C@H](O)[C@@H](O)[C@@H](O[C@H]5[C@H](O)[C@@H](O)[C@@H](O[C@H]6[C@H](O)[C@@H](O)[C@@H](O[C@H]7[C@H](O)[C@@H](O)[C@@H](O[C@H]8[C@H](O)[C@@H](O)[C@@H](O[C@H]1[C@H](O)[C@H]2O)O[C@@H]8COCC(C)O)O[C@@H]7COCC(C)O)O[C@@H]6COCC(C)O)O[C@@H]5COCC(C)O)O[C@@H]4COCC(C)O)O[C@@H]3COCC(C)O (stereo partly drawn) [HβCD, hydroxypropyl-β-cyclodextrin]
3. C=C1CC[C@H]2C(=C)CC[C@H]3C(=C)C(=O)O[C@@H]3[C@@H]12 [Dehydrocostus lactone]
4. CC(C)C[C@H](NC(=O)[C@H](Cc1ccccc1)NC(=O)c1cnccn1)B(O)O [Bortezomib (PS-341), Bortezomib]

Reply:
1. 20
2. 20000
3. 100
4. 0.8
